B1: TPR t1 (parent)
chain: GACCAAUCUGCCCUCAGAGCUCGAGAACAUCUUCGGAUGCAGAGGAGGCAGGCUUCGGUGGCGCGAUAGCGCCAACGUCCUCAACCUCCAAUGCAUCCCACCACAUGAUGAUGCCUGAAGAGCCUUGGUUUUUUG

# Variants of: B1
# testDescription: polymerase ribozyme fitness, log enrichment relative to wild type (log ratio); higher = more active; in vitro selection for triplet polymerase activity
Consider the following variants; for each one, report its polymerase ribozyme fitness (log ratio).

// polymerase ribozyme fitness (log ratio) value for U33C G60A : -4.87

Please fill in: polymerase ribozyme fitness (log ratio) reported for U33C C124A = -2.98

What the record says about C40U G122A : polymerase ribozyme fitness (log ratio) is -1.22

The reported value for C49G A83G C88A C102U G120C in terms of polymerase ribozyme fitness (log ratio) is -5.33

Data point: G60A C82U U109G ; polymerase ribozyme fitness (log ratio) = -5.13

The value of polymerase ribozyme fitness (log ratio) measured for the variant C11U C22G A26C turned out to be -3.57

G51U C53U C88G has a reported polymerase ribozyme fitness (log ratio) of -2.23

Sample C22G U78C ; polymerase ribozyme fitness (log ratio) observed: -3.01

// polymerase ribozyme fitness (log ratio) lookup, variant = G42U C70U U126G , result: -5.19

Reported polymerase ribozyme fitness (log ratio) for C13G G47A was -2.67

// C3U C40U A43G C53U C124U : polymerase ribozyme fitness (log ratio) value = -1.48

Reported polymerase ribozyme fitness (log ratio) ( U78C C99A U106C ) = -4.95

Recorded polymerase ribozyme fitness (log ratio) (variant C4U C13U G19U A95G ): -2.99

Just so you know, measured polymerase ribozyme fitness (log ratio) for C4A U59C G69U C115U came out at -3.99

The variant listed as C12G G120A has a reported polymerase ribozyme fitness (log ratio) of 1.87

The measured polymerase ribozyme fitness (log ratio) associated with G47U G69C reads -3.62

Input G19A G44U G48C C49A C53A G69U C88G C104A G135C . Output polymerase ribozyme fitness (log ratio): -2.97

# variant C72U C89G G113C ; its polymerase ribozyme fitness (log ratio) = -3.26

Looking up C70A G128A , I see its polymerase ribozyme fitness (log ratio) listed as -3.64

Entry A27U C40A C70A ; polymerase ribozyme fitness (log ratio) = -6.74

GET /value?item= C8G C12G U55G G61U &field=polymerase ribozyme fitness (log ratio) returns 0.571

For this variant ( C86U C88U ), measured polymerase ribozyme fitness (log ratio) is 0.0768
